Tested On: HIV-1 Env of isolate MGRM-G-024 (subtype G), on pseudovirus (HIV-1)
Method Description: cell-based or functional assay
Endpoint Label: IC50 (µg/mL), neutralization of pseudovirus
Enter your answer as a number in µg/mL; do not include the unit.

A selection of reference data follows.
Could you share which IC50 (µg/mL), neutralization of pseudovirus value was measured for PGT-130 (antibody, V domains shown) VH: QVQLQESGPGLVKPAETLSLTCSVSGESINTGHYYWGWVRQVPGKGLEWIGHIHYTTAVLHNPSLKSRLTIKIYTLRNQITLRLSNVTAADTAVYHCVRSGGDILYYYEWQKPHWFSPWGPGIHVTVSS VL: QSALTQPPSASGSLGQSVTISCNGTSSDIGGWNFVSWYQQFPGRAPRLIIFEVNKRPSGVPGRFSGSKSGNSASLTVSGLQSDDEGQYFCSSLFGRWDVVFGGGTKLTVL ? 5.84

Could you share which IC50 (µg/mL), neutralization of pseudovirus value was measured for PGT-135 (antibody, V domains shown) VH: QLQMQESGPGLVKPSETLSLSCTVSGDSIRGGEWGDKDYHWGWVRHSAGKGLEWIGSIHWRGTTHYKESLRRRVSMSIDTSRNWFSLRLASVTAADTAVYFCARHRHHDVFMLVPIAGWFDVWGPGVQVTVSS VL: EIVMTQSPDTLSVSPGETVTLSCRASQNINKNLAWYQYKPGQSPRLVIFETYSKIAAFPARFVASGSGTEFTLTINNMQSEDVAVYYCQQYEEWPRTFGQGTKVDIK ? 0.062

Could you share which IC50 (µg/mL), neutralization of pseudovirus value was measured for PGT-131 (antibody, V domains shown) VH: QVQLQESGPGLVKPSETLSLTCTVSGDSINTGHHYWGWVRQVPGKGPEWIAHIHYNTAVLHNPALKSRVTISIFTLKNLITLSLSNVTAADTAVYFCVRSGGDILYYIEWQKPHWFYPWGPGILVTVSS VL: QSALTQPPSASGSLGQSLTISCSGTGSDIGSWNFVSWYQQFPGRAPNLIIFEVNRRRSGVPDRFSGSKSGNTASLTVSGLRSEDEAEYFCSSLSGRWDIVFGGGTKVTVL ? 10.7

Now, please, on to the next binder.
Could you share which IC50 (µg/mL), neutralization of pseudovirus value was measured for PGT-136 (antibody, V domains shown) VH: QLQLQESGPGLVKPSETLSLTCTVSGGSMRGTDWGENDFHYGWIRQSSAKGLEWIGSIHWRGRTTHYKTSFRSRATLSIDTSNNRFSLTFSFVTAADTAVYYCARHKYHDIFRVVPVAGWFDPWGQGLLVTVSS VL: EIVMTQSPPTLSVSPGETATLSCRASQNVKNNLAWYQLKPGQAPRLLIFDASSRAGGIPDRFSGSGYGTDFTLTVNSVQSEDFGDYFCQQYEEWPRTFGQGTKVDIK ? 0.152
